The origin of these recorded values is patent US5604203A.

# target_entity: PYY receptor of rat jejunal epithelial plasma membranes (rat)
# experiment_notes: competition with 125I-PYY on rat jejunal membranes
Square brackets hold non-standard residues; d marks the D form. Bip = N[C@@H](Cc1ccc(-c2ccccc2)cc1)C(=O)O; 2Nal = N[C@@H](Cc1ccc2ccccc2c1)C(=O)O; Tic = O=C(O)[C@@H]1Cc2ccccc2CN1; 2Thi = N[C@@H](Cc1cccs1)C(=O)O
property: IC50

Below are worked cases with known answers.
[
  {
    "binder": "Ac-ASLRH[Bip]LNLVTRQRY-NH2 [N-α-Ac-[Bip^27 ]PYY(22-36)]",
    "IC50": "4.46 nM"
  },
  {
    "binder": "Ac-ASLRH[Tic]LNLVTRQRY-NH2 [N-α-Ac-[Tic^27 ]PYY(22-36)]",
    "IC50": "4.5 nM"
  },
  {
    "binder": "Ac-ASLRH[2Thi]LNLVTRQRY-NH2 [N-α-Ac-[Thi^27 ]PYY(22-36)]",
    "IC50": "0.095 nM"
  },
  {
    "binder": "Ac-ASLRH[2Nal]LNLVTRQRY-NH2 [N-α-Ac-[Nal^27 ]PYY(22-36)]",
    "IC50": "0.39 nM"
  }
]

Now examine the next entry.
Query: What value of measured IC50 is listed for Ac-ASLRHWLNLVTRQRY-NH2 [N-α-Ac-[Trp^27 ]PYY(22-36)] ?
Reply: 0.1 nM
